Tested on: CDK4-cyclinD3;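 further: KINOMEscan kinase panel screen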
Details: concentration: 1 μM, replicates: in singlicate; n = 1
READOUT: %Inh

Query: %Inh lookup needed for CCCc1ccc(S(=O)(=O)NC2CCN(c3ccnc(Nc4ccc(F)cc4)n3)C2)cc1 (stereo not drawn) , thanks.
Reply: 0%

Query: For `Cc1cccc(-c2nc(-c3ccc(S(C)(=O)=O)cc3)sc2-c2ccnc(NCCc3ccccc3)c2)c1` then?
Reply: 0%

Query: Same again, this time with `Cc1ccc(C(=O)Nc2ccc(Nc3ccnc4cc(-c5ccccn5)ccc34)cc2O)cc1.Cl`
Reply: 0%

Query: And for `COc1cc2ncnc(Nc3ccc4nc(-c5ccccc5)[nH]c4c3)c2cc1OC.Cl` ?
Reply: 0%

Query: Thanks! And COc1cc2ncn(-c3cc(OCC4CCCO4)c(C(N)=O)s3)c2cc1OC (stereo not drawn) ?
Reply: 0%

Query: One more compound: COc1ccc(CNC(=O)NC2CCN(c3ccnc(Nc4cc(OC)c(OC)c(OC)c4)n3)C2)cc1 (stereo not drawn)
Reply: 0%

Query: Next compound up: `CN1C(=O)C(Nc2ccc(Cl)c(C(=O)O)c2)=C(c2ccc(Cl)cc2)C1=O`
Reply: 0%

Query: Repeat for the following compound: `O=c1cc(N2CCOCC2)nc2n(Cc3cccc(Cl)c3Cl)ccn12`
Reply: 0%

Query: Also check `Cc1c(Cn2ccn3c(=O)cc(N4CCOCC4)nc23)cccc1C(F)(F)F`
Reply: 0%

Query: How about `COC(=O)c1c(-c2ccccc2)c2cc(OC)ccc2c(=O)n1Cc1ccccc1` ?
Reply: 0%

Query: Same for `Fc1cccc(COc2nnc(-c3ccc4c(c3)CCO4)o2)c1`
Reply: 0%

Query: Okay, and `CS(=O)(=O)c1ccc(-c2nc3n(c2-c2ccncc2)CCC3)cc1` ?
Reply: 6%

Query: What about this compound? `O=C1NC(=O)C(N2CCc3ccccc32)=C1c1ccccc1Cl`
Reply: 15%

Query: Another compound to check: `CC(=O)Nc1nc2cnc(Nc3cc(NC(=O)c4cccc(CCC#N)c4)ccc3C)nc2s1`
Reply: 0%

Query: Query Cc1nnc(-c2ccc3occ(-c4ccc(S(C)=O)cc4)c3c2)[nH]1 (stereo not drawn) next
Reply: 2%

Query: Moving on to `Clc1cc(Cl)cc(Nc2ccnc(Nc3cc(Cl)cc(Cl)c3)n2)c1`
Reply: 0%

Query: Same lookup for `COc1cc2nccc(Nc3ccc(NC(=O)c4ccc(C)cc4)c(O)c3)c2cc1OC.Cl` , please.
Reply: 0%

Query: How about this compound: `COc1ccc2nc(-c3cccc(C)n3)nc(Nc3ccncc3)c2c1`
Reply: 0%

Query: Repeat for the following compound: `COc1cccc(-c2cc(-c3c[nH]nc3-c3ccccn3)ccn2)c1`
Reply: 0%

Query: Would you kindly repeat that for `Cc1csc(-c2nc(Nc3ccncc3)c3ccccc3n2)n1` ?
Reply: 1%

Query: And what about the compound `CC(C)(C)c1ccc(C(=O)Nc2cn3cc(-c4cccnc4)ccc3n2)cc1` ?
Reply: 0%

Query: Request: `O=C(Nc1n[nH]c2cc(-c3cccc(F)c3F)ccc12)C1CC1`
Reply: 30%

Query: Request: `C[C@@H]1CCCCN1c1cc(-c2ccc3c(N)n[nH]c3c2)nc(N)n1`
Reply: 7%

Query: Also need `Cc1cc(-c2ccc3c(c2)CC[C@@H](N[C@@H](C)c2ccccc2)C3)cnc1N.Cl` , thanks.
Reply: 0%
